Would you mind telling me the reported apparent KD of MS2 coat protein of each entry?
# System: MS2 coat protein
# experimental-details: apparent KD of MS2 coat protein; designed switch direction (-1 OFF switch, 1 ON switch): -1; higher = weaker reporter binding
# conditions: input ligand: FMN 200 uM

chain	apparent KD of MS2 coat protein
UUAAUGGCUGUGAGGAUAUCGGAUAGAUAGAUAUUCGAGAAGGCACAUGAGGAUCACCCAUGUGUGAUCAGAGA [Brourd's EX4 #62] (Eterna round: R97, puzzle: Brourd's mod of Exclusion 4)	466 nM
AAAUAGGGAGGAUAUCCAAUAUAUGACAUGAGGAUCACCCAUGUUUCCACUCGUACCUCCGGAGAAGGCCCAUAAU [Ex5 #2] (Eterna round: R97, puzzle: Exclusion 5)	25.8 nM
UGUGUGAGACAGGAUAUGCUGGAUGUGUGGCGGGUAGAAGGGUCUACAUGAGGAUCACCCAUGUGGCCGGUUGG [Ex6 #69] (Eterna round: R97, puzzle: Exclusion 6)	15.8 nM
CACGUACAGCAAGGAUAUCCAAAUGUUGAGCAUGGCCUAUCCAUACAUGAGGAUCACCCAUGUUCGGAGAAGGUGCAUGUAUCU [Enteinte] (Eterna round: R96, puzzle: Exclusion NG 2)	11.2 nM

Here's the next entry for you.
The sequence identified as UUGUUCUGAGGAUAUACAUGAGGAUCACCCAUGUGUUUCAGCUAGGAGACUAGCGAAAGUAGAAGGCUGUACUC [salish99_ex3_r4_017] (Eterna round: R97, puzzle: Exclusion 3) registered its apparent KD of MS2 coat protein at 26.9 nM

Attribution: the supplement of paper PMC9170038
